Ref: patent US4308273A

# Assay Overview: Acute toxicity (LD50) by intraperitoneal injection
# Recorded Conditions: mouse, in vivo, ip; male mice, intraperitoneal injection (Table 3)
Property Name: LD50 (mg/kg)

compound=CC(C)CCN1CCc2ncccc2C1 property_name=LD50 test_value=219
compound=c1ccc(CCN2CCc3ncccc3C2)cc1 property_name=LD50 test_value=219
compound=c1cnc2c(c1)CN(CC1CCC1)CC2 property_name=LD50 test_value=214
compound=c1ccc(CN2CCc3ncccc3C2)cc1 property_name=LD50 test_value=262
compound="CNCCc1ccccn1 [betahistine, reference compound]" property_name=LD50 test_value=864
compound=CCCCCCN1CCc2ncccc2C1 property_name=LD50 test_value=194
compound="OC(CCCN1CCCCC1)(c1ccccc1)c1ccccc1 [diphenidol, reference compound]" property_name=LD50 test_value=105
compound=C=CCCN1CCc2ncccc2C1 property_name=LD50 test_value=239
compound=CCCCCC=CCN1CCc2ncccc2C1 property_name=LD50 test_value=304
compound=c1cnc2c(c1)CN(CC1CC1)CC2 property_name=LD50 test_value=176
compound=CCCCCN1CCc2ncccc2C1 property_name=LD50 test_value=165
